- Tested on: CEM cells HIV-1 protection, formazan growth assay
- method description: NCI AIDS Antiviral Assay
- measurement context: measured here: growth of uninfected CEM cells
reported endpoint: IC50 (µM)
One number for each entry, in µM.

Solved cases (3 shown):
molecule: NCCCCN(CCCN)Cc1ccc2ccccc2c1
study target: CEM cells HIV-1 protection, formazan growth assay
unit annotation: µM
IC50: 72.4

molecule: COc1ccc(N2C(=O)C(C#N)=C(SC)C(C#N)C2=O)cc1 (configuration not stated)
study target: CEM cells HIV-1 protection, formazan growth assay
unit annotation: µM
IC50: 174

molecule: O=[N+]([O-])c1ccc(Cl)c(SSc2cc([N+](=O)[O-])ccc2Cl)c1
study target: CEM cells HIV-1 protection, formazan growth assay
unit annotation: µM
IC50: 14.1

# batch: return IC50 for each of the 3 molecules below
1. O=C1C(Cl)N(c2c(Cl)cccc2Cl)C1c1c[nH]c2ccccc12 (configuration not stated)
2. O=C(OCCN1CCCCCC1)C(c1ccsc1)C1CCCCC1 (configuration not stated)
3. O=C(/C=C\c1ccccc1O)c1ccc(O)cc1O

OUTPUT:
1: 115; 2: 35.5; 3: 7.24

* * *

- Test system: CEM cells HIV-1 protection, formazan growth assay
- method description: NCI AIDS Antiviral Assay
- measurement context: measured here: growth of uninfected CEM cells
reported endpoint: IC50

compound: C1COC2SC3=C(SC(=C4SC5=C(SCCS5)S4)S3)SC2O1 (stereo not drawn)
IC50: > 100 µM
--
compound: O=C(c1ccccc1)C(c1ccccc1)C1(O)C(=O)Nc2ccc(Br)cc21 (stereo not drawn)
IC50: > 85.1 µM
--
compound: O=C(O)CCCCCCCC(=O)O
IC50: > 1320 µM
--
compound: CCOC(=O)C1(C(=O)OCC)C[C@H](C)[C@](C)(O)C1
IC50: > 200 µM
--
compound: CC1(C)CCC2(C)N(c3ccccc3)C(=O)ON12 (stereo not drawn)
IC50: > 200 µM
--
compound: CC1(C)OC(=O)C(C#N)=C1C[n+]1ccccc1
IC50: > 263 µM

# batch: return IC50 for each of the 5 compounds below
1. CC1(C)C2CCC3(OCCO3)C1C(O)C2 (stereo not drawn)
2. CC(C)(CO)/[N+]([O-])=C/c1ccccc1
3. O=C(Cn1c(=O)ccn(C2OC(CO)C(O)C2F)c1=O)c1ccc(F)cc1 (stereo not drawn)
4. CNC(=O)CN(CC(=O)O)C(=O)NC
5. COc1cccc(N2C(=O)/C(=C/c3ccc(N(CCC#N)CCC#N)cc3)N=C2c2cc([N+](=O)[O-])ccc2Cl)c1

OUTPUT:
["> 427 µM", "> 200 µM", "> 200 µM", "> 1230 µM", "> 9.33 µM"]

# batch: return IC50 for each of the 2 compounds below
1. CN(NC(=O)CCCl)C1=NCCCCN1
2. COc1ccc(/C=C2/Cc3cccc4c([N+](=O)[O-])ccc2c34)cc1

OUTPUT:
> 200 µM
> 100 µM

# batch: return IC50 for each of the 2 compounds below
1. NC(=O)C(=CN1C(=O)/C(=C/c2ccc([N+](=O)[O-])cc2)SC1=S)C(N)=O
2. Cc1c2[nH]c3ccc(Br)cc3c2c(C)c2[nH]ccc(=O)c12

OUTPUT:
["30.2 µM", "> 3.31 µM"]

# batch: return IC50 for each of the 3 compounds below
1. CCCCCCCCCCCCCCCCOP(=O)(O)OP(=O)(O)OCC1OC(n2cnc3c(N)ncnc32)C(O)C1O (stereo not drawn)
2. CCOC(=O)CCCNC(=O)c1ccccc1SC(=O)CCCC[n+]1ccccc1
3. CC1=CCCC(C)C1(C)CC/C(C)=C/CC/C(C)=C/CS(=O)(=O)CCN=C(N)N (stereo not drawn)

OUTPUT:
120 µM
0.912 µM
10.7 µM

# batch: return IC50 for each of the 7 compounds below
1. NC1=NC(=O)[C@H](Cc2c[nH]c3ccccc23)N1C(=O)OCc1ccccc1
2. Cc1cc(N(CCC#N)CCC#N)ccc1/C=C1N=C(/C=C\c2ccccc2)OC\1=O
3. O=c1[nH]c2cc3[nH]c4ncccc4c(=O)c3cc2[nH]1
4. SC1N=C(c2ccccc2)N2C(S)N=C(c3ccccc3)N12 (stereo not drawn)
5. COc1ccc(C2=Cc3nc2c(-c2ccccc2)c2ccc([nH]2)c(-c2ccccc2)c2nc(c(-c4ccccc4)c4ccc([nH]4)c3-c3ccccc3)C=C2)cc1
6. Cc1cccc(C)c1NC(=S)NNC(=O)NNC(=S)Nc1c(C)cccc1C
7. O=C1C=CC(=O)c2cc(Sc3ccccc3)c(=O)ccc21

OUTPUT:
120 µM
> 17.8 µM
> 200 µM
83.2 µM
> 100 µM
> 200 µM
1.26 µM

# batch: return IC50 for each of the 5 compounds below
1. Cc1ccc(S(=O)(=O)Sc2ccccc2)cc1
2. Cn1c2ccccc2c(=O)c2c(O)cc3c(c21)CC(C1(C)CO1)O3 (stereo not drawn)
3. CN(C)CCn1nc2n(c(=O)c1=O)CC(=O)N(C)c1ccc(Cl)cc1-2
4. CC(C)=CCNc1ncnc2c1ncn2CCC#N
5. CCOC(=O)c1cncc(C#N)c1

OUTPUT:
21.9 µM
0.209 µM
> 407 µM
> 200 µM
105 µM

# batch: return IC50 for each of the 3 compounds below
1. NS(=O)(=O)c1cc2c(cc1Cl)NC(C(=O)NNC(=O)c1ccncc1)=NS2(=O)=O
2. c1ccc2c(c1)SC1=C(SC(=C3SC4=C(S3)Sc3ccccc3S4)S1)S2
3. CC(=O)OC/C=C(/C)C[P+](c1ccccc1)(c1ccccc1)c1ccccc1

OUTPUT:
1: > 77.6 µM; 2: > 100 µM; 3: 0.955 µM

* * *

- Tested on: CEM cells HIV-1 protection, formazan growth assay
- method description: NCI AIDS Antiviral Assay
- measurement context: measured here: growth of uninfected CEM cells
Answer each item with its documented IC50.

Solved cases (3 shown):
structure notation: CCCCCCCCCCCCCCCCCCNC(=O)c1ccccc1[Se][Se]c1ccccc1C(=O)NCCCCCCCCCCCCCCCCCC
study target: CEM cells HIV-1 protection, formazan growth assay
result: > 0.794 µM
//
structure notation: O=C(O)CCCc1cc2c(s1)-c1cccc3cccc-2c13
study target: CEM cells HIV-1 protection, formazan growth assay
result: > 33.9 µM
//
structure notation: [O-][n+]1nc(N2CCOCC2)nc2ccccc21
study target: CEM cells HIV-1 protection, formazan growth assay
result: > 200 µM

# batch: return IC50 for each of the 2 molecules below
1. COc1ccc(-n2nc(C)cc(Cl)c2=O)cc1
2. CC(=O)OCc1ccc(-c2nc(C#N)c(N)o2)o1

OUTPUT:
> 145 µM
> 200 µM

* * *

- Tested on: CEM cells HIV-1 protection, formazan growth assay
- method description: NCI AIDS Antiviral Assay
reported endpoint: EC50

Solved cases (2 shown):
structure notation: CCCC1(CCCNC(=O)c2ccccc2)OCc2ccccc2CO1
EC50: > 513 µM
//
structure notation: O=C1C=C(C2=CC(=O)C(=O)c3ccccc32)c2ccccc2C1=O
EC50: > 151 µM

Now look at this entry.
// recorded EC50 for `CCCOCC(=O)OC` : > 1910 µM

* * *

Answer each item with its documented pEC50.
- System: CEM cells HIV-1 protection, formazan growth assay
- method description: NCI AIDS Antiviral Assay
pEC50: −log10 of the molar value.

Solved cases (4 shown):
compound: COC(=O)CNC(=O)C(CSC(=O)OCC1c2ccccc2-c2ccccc21)NC(=O)CCC(NC(=O)OCC1c2ccccc2-c2ccccc21)C(=O)OC (stereo unspecified)
study target: CEM cells HIV-1 protection, formazan growth assay
pEC50: < 3.70

compound: COc1ccc(C(C#N)NNC(=O)Cc2ccccc2)cc1OC (stereo unspecified)
study target: CEM cells HIV-1 protection, formazan growth assay
pEC50: < 3.40

compound: COc1cc(C(Cc2ccccc2)NC(C)=O)oc(=O)c1 (stereo unspecified)
study target: CEM cells HIV-1 protection, formazan growth assay
pEC50: < 3.06

compound: O=C1/C(=C/c2cccc(Br)c2)CSC/C1=C\c1cccc(Br)c1
study target: CEM cells HIV-1 protection, formazan growth assay
pEC50: < 3.70

# batch: return pEC50 for each of the 4 compounds below
1. CCCCN=C(N)N=C(N)N
2. O=C1NC(N/N=C\C(O)C(O)C(O)C(O)CO)=N/C1=C\c1ccc(Cl)cc1 (stereo unspecified)
3. Cn1c(/C=N/NC(=O)c2ccc(C(=O)N/N=C/c3c[n+]4ccccc4n3C)cc2)c[n+]2ccccc12
4. NC(N)=NC(N)=Nc1ccc(Sc2ccc(N=C(N)N=C(N)N)cc2)cc1

OUTPUT:
< 3.70
< 3.70
4.45
< 3.70

# batch: return pEC50 for each of the 7 compounds below
1. Cc1cc(S(=O)(=O)n2cc[nH]c2=O)c(S)cc1Cl
2. Cc1cn(C2OCC(CO)C2O)c(=O)[nH]c1=O (stereo unspecified)
3. CCc1nc(N)nc(C(=O)NCCNC(=O)c2nc(N)nc(CC)c2C)c1C
4. NC(=O)NN=C1CCC(CC2CCCCC2)CC1 (stereo unspecified)
5. COc1ccc2c(c1)[n+]([O-])c(/C(C)=N/NC(=O)CC#N)c[n+]2[O-]
6. Cn1ccnc1.Cn1ccnc1.[O-][Cl+3]([O-])([O-])[O-].[Pt+2].c1ccc(-c2ccccn2)nc1
7. CNc1c(Br)cc(/C=C2\C=Cc3ccccc32)cc1Br

OUTPUT:
1: < 3.70; 2: < 3.70; 3: < 4.17; 4: < 3.70; 5: < 4.78; 6: < 3.70; 7: < 5.02

// recorded pEC50 for `O=[N+]([O-])c1ccccc1P1(=O)OCCO1` : < 3.70
